- tested system: Tyrosine-protein phosphatase non-receptor type 6 (Homo sapiens, UniProt P29350)
- Sequence (P29350 whole entry): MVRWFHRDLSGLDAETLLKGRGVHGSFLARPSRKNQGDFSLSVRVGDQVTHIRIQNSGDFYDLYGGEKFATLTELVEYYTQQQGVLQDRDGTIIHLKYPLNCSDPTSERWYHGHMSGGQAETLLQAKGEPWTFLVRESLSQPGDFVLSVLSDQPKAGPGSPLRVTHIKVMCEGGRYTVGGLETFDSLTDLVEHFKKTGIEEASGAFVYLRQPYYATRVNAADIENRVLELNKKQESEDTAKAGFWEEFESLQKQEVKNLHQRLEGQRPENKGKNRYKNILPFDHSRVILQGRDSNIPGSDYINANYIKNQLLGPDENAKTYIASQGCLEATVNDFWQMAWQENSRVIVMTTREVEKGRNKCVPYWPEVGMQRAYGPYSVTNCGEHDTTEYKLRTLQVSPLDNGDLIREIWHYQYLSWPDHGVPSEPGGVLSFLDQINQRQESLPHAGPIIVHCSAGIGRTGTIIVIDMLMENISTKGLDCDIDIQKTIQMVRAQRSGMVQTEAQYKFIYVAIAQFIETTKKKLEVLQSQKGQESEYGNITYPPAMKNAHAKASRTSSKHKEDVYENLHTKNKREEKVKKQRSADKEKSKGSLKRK
- assay info: Inhibition of SHP1
- particulars: read-out: IC50
Reported pIC50 is given for each of the following compounds.
Entry type: numeric. Quantity: pIC50, the -log10 of concentration in molar units.

INSERT INTO measurements (chemical_structure, measurement) VALUES
  ('CCCCCCCCCCCCCCCCCC(=O)c1cc(C(=O)Nc2ccsc2C(=O)O)[nH]n1', 5.01);

--- query ---
Data request, read-out pIC50, for `CCCCCCCCCCCCCCCCCC(=O)c1cc(C(=O)Nc2ccccc2C(=O)O)[nH]n1`
4.97
